Test target: T1, integrin αvβ8 (human, UniProt P06756)
T1 chain 1: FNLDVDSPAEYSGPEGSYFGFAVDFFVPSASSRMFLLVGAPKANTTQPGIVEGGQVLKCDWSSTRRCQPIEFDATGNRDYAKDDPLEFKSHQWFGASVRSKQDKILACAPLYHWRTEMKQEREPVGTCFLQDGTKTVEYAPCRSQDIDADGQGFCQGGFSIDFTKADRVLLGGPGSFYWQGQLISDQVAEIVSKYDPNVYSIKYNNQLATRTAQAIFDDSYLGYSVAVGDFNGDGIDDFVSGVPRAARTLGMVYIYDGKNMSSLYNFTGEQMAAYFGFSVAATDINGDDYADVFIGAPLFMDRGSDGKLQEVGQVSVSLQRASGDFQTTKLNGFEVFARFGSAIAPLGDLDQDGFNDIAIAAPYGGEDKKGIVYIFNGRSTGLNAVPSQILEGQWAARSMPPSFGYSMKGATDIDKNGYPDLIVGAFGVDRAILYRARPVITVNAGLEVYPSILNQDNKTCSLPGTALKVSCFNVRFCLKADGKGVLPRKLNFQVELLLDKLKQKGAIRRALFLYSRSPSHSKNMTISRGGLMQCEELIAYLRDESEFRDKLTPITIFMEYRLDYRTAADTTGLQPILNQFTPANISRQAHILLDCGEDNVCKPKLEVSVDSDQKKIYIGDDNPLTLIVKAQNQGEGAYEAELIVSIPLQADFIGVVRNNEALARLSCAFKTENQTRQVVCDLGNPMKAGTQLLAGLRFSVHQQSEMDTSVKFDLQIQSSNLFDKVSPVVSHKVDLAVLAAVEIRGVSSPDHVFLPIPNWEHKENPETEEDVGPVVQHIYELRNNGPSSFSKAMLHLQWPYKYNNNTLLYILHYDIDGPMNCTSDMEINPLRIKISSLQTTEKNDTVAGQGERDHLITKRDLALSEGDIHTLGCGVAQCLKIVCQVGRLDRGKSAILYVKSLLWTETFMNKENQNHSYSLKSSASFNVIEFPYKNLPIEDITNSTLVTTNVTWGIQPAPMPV
T1 chain 2: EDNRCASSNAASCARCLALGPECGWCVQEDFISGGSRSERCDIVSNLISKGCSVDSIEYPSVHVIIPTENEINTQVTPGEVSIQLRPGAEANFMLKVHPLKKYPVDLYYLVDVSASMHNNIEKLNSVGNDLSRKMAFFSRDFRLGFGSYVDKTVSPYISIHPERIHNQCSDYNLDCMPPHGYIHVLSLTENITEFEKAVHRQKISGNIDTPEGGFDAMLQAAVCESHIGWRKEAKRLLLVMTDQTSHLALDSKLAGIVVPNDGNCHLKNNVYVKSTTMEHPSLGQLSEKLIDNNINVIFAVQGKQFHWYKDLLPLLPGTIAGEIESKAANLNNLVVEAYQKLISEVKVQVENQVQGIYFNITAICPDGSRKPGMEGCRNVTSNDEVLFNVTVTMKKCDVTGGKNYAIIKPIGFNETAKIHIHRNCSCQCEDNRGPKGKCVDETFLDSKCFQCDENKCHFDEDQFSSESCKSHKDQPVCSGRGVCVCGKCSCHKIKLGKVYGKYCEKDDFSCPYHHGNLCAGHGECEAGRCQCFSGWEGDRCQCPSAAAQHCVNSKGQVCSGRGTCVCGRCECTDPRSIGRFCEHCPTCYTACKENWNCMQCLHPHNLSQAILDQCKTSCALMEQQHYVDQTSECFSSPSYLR
Test details: competition
[ ]: non-standard residue; d: D form. dNMeF = CN[C@H](Cc1ccccc1)C(=O)O; NMeK = CN[C@@H](CCCCN)C(=O)O
Quantity measured: pIC50
Remember the convention: pIC50 equals -log10 of concentration in molar.

cyclo(RGDL[dP]PAA) (SMILES CC(C)C[C@@H]1NC(=O)[C@H](CC(=O)O)NC(=O)CNC(=O)[C@H](CCCNC(=N)N)NC(=O)[C@H](C)NC(=O)[C@H](C)NC(=O)[C@@H]2CCCN2C(=O)[C@H]2CCCN2C1=O) [Compound 10 (Table 1)] : 8.09
cyclo(RGDL[dP]PGL) [Compound 2] : 9.03
cyclo(RGDL[dNMeF]PAL) (SMILES CC(C)C[C@@H]1NC(=O)[C@H](C)NC(=O)[C@@H]2CCCN2C(=O)[C@@H](Cc2ccccc2)N(C)C(=O)[C@H](CC(C)C)NC(=O)[C@H](CC(=O)O)NC(=O)CNC(=O)[C@H](CCCNC(=N)N)NC1=O) [Compound 6] : 8.03
cyclo(RGDL[dP][NMeK](Ac)GL) [Compound 9] : 8.22

// below: pIC50 requested for another binder
Form: binder = cyclo(RGDL[dP]PAH) (SMILES CC(C)C[C@@H]1NC(=O)[C@H](CC(=O)O)NC(=O)CNC(=O)[C@H](CCCNC(=N)N)NC(=O)[C@H](Cc2c[nH]cn2)NC(=O)[C@H](C)NC(=O)[C@@H]2CCCN2C(=O)[C@H]2CCCN2C1=O) [Compound 5] ; pIC50 = 8.66

Measured values drawn from patent US20200087347 for this set.
